target: FAD-linked sulfhydryl oxidase ALR (Homo sapiens, UniProt P55789); test: ALR-catalysed DTT oxidation blockers – biochemical, H2O2 detection, luminescence, cherry-pick, dose response (AID 493248)
Sequence (P55789 whole entry): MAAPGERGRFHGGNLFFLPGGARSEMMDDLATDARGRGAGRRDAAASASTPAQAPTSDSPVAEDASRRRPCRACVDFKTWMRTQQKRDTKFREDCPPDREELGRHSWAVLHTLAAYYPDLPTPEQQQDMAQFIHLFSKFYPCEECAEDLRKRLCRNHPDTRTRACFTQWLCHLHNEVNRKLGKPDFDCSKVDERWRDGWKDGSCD
Activity calls are given as the source filed them.
Measured AC50 values are reported for all entries that follow.

compound="CN1CCCC(CN2c3ccccc3Sc3ccccc32)C1 (stereo not drawn) [MEPAZINE ACETATE]" result="98 nM (active)"

Request the reported AC50 associated with NC(=O)C1CCN(C(=O)N2c3ccccc3Sc3ccccc32)CC1 10800 nM (active)

Request the reported AC50 associated with CCN(CCNC(=O)C1CCCN(S(=O)(=O)c2c[nH]cn2)C1)c1ccccc1 (stereo not drawn) 394 nM (active)

Request the reported AC50 associated with CCN(CC)c1ccc(NC(=O)c2cnn(CC)c2)cc1 215 nM (active)

* * *

test: Trypanosoma cruzi growth suppression in host cells – NIH3T3 host cells, beta-gal luminescence, confirmation (AID 2044); assay type: functional, cell-based;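 further: intracellular parasites grown in NIH/3T3 mouse fibroblasts as host cells; luminescent beta-galactosidase reporter signal from transgenic T. cruzi replicating inside host cells; inhibitors lower the luminescence signal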
The source made the active and inactive calls.
Reported Endpoint: EC50

A selection of reference data follows.
molecule="CC1Cc2ccccc2N1C(=O)CSc1nc2c(c(=O)n(C)c(=O)n2C)n1Cc1ccccc1 (configuration not stated)" reported_endpoint=EC50 result="4.07 µM (active)"
molecule="CCN1CCN(C(c2cccnc2)c2cc(Cl)c3cccnc3c2O)CC1 (configuration not stated)" reported_endpoint=EC50 result="2.13 µM (active)"
molecule=COc1ccc(Br)cc1CNCCc1cccc(Cl)c1 reported_endpoint=EC50 result="1.12 µM (active)"

Request the reported EC50 associated with COc1ccccc1NC(=O)/C=C1\SCC(=O)N1C 0.949 µM (active)

Request the reported EC50 associated with O=C(Cn1cnc2cc([N+](=O)[O-])ccc2c1=O)Nc1ccc2c(c1)CCC2 0.5 µM (active)

Request the reported EC50 associated with CCN1CCN(CCOc2ccc(Cl)cc2)CC1 0.176 µM (active)

Request the reported EC50 associated with O=[N+]([O-])c1ccc(/C=N/Nc2nc(N3CCCCCC3)nc(N3CCCCCC3)n2)o1 0.197 µM (active)

* * *

biological target: Cysteine protease ATG4B (Homo sapiens, UniProt Q9Y4P1); type: functional;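 further: Fluorescence-based dose-response confirmation assay measuring inhibition of ATG4B activity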
Sequence (Q9Y4P1 whole entry): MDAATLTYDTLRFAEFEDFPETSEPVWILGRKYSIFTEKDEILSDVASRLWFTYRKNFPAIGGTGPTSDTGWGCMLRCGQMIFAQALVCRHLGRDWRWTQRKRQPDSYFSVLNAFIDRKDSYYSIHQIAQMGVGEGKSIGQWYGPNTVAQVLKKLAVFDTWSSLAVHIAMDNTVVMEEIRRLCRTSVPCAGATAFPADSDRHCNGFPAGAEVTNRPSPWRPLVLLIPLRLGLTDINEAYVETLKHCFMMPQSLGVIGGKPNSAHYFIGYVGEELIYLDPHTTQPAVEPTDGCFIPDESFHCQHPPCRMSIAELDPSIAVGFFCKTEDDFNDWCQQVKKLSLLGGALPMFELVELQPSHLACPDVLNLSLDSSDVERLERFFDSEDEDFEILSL
Calls of active or inactive are those of the source.
Reported Endpoint: IC50

A selection of reference data follows.
compound=N#Cc1c(N2CCCC2)nc(N)c2c(N)nc(N3CCCC3)cc12 result="1.64 µM (active)"
compound=Cc1cc(NS(=O)(=O)c2ccc(Nc3nc(-c4ccc(C)c(C)c4)cs3)cc2)no1 result="13.1 µM (active)"
compound="CC(C)c1ccc(NC2CCCN(C(=O)CCN3Cc4ccccc4C3=O)C2)cc1 (stereo unspecified)" result="15.5 µM (active)"
compound="NS(=O)(=O)c1cc(C(=O)NC2CCSc3ccccc32)ccc1Cl (stereo unspecified)" result="6.64 µM (active)"
compound=COc1cc(OC)cc(-c2nc3ccccc3c(=O)n2OC(=O)c2ccc(Br)cc2)c1 result="2.51 µM (active)"

Let us examine a further case.
Request the reported IC50 associated with COC(=O)c1cc(C)nc2c1C(=O)C(=O)C=C2N1CCOCC1 4.45 µM (active)

* * *

molecular target: Cytochrome P450 1A2 (Homo sapiens, UniProt P05177);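 further: PubChem cytochrome P450 panel assay, CYP1A2 panel member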
Reported Endpoint: AC50

A selection of reference data follows.
smiles_str=COc1ccc(-c2[nH]c(-c3ccc(C(=O)O)cc3)nc2-c2ccccc2)cc1 result="28.2 µM (inconclusive)"
smiles_str=O=S(=O)(c1ccc(Cl)s1)N1CCc2ccccc2C1 result="25.1 µM (inconclusive)"

Record lookup: for Cytochrome P450 1A2 (Homo sapiens, UniProt P05177), what AC50 belongs to O=C(c1cc(C(F)(F)F)cc(C(F)(F)F)c1)N1CCC2(CC1)CCN(c1ccncc1)CC2 ? 25.1 µM (inconclusive)

* * *

Measured AC50 values are reported for all entries that follow.
Sequence of the target: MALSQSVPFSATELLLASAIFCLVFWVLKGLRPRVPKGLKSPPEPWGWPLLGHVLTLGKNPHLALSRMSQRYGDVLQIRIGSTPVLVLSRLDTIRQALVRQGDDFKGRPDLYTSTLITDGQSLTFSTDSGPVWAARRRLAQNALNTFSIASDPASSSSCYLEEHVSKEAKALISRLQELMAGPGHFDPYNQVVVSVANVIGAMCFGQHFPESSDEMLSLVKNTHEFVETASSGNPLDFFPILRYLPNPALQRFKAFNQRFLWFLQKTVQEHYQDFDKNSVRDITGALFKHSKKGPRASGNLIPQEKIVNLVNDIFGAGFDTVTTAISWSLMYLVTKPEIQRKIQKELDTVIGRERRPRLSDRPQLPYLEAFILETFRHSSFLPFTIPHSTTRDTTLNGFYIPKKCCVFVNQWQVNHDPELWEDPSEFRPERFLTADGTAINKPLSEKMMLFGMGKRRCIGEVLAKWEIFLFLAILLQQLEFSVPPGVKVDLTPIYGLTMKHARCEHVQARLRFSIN

A selection of reference data follows.
compound=O=C(O)CCN1C(=S)CSC1=S result="5.01 µM (inconclusive)"
compound=CC(C)C[C@H](NC(=O)N1CCCCCC1)C(=O)N[C@H](Cc1cn(C)c2ccccc12)C(=O)N[C@H](Cc1ccccn1)C(=O)O result="39.8 µM (inconclusive)"

Request the reported AC50 associated with Cc1nc(NC(=O)c2ccco2)sc1-c1csc(Nc2ccc(Cl)cc2Cl)n1 15.8 µM (inconclusive)

Request the reported AC50 associated with O=C1c2ccccc2S(=O)(=O)N1CCCCN1CCN(c2ncccn2)CC1 [IPSAPIRONE] 31.6 µM (inconclusive)

* * *

target: Heat shock protein HSP 90-alpha (Homo sapiens, UniProt P07900); assay type: functional, organism-based
Active and inactive are the calls of the source.
Reported Endpoint: AC50

Record lookup: for Heat shock protein HSP 90-alpha (Homo sapiens, UniProt P07900), what AC50 belongs to Nc1ccccc1C#CC(=O)c1ccccc1 ? 5.42 µM (active)

Record lookup: for Heat shock protein HSP 90-alpha (Homo sapiens, UniProt P07900), what AC50 belongs to CN(C)CC1Oc2ccccc2OC1(O)c1ccccc1 (configuration not stated) ? 2.52 µM (active)

Record lookup: for Heat shock protein HSP 90-alpha (Homo sapiens, UniProt P07900), what AC50 belongs to CCCCCCCCC/C(=N\O)c1ccccn1 ? 4.09 µM (active)

* * *

molecular target: Sentrin-specific protease 7 (Homo sapiens, UniProt Q9BQF6); assay: inhibition of human SENP7 cleavage activity – biochemical, luminescence, SAR follow-up (AID 504497); type: functional
Sequence (Q9BQF6 whole entry): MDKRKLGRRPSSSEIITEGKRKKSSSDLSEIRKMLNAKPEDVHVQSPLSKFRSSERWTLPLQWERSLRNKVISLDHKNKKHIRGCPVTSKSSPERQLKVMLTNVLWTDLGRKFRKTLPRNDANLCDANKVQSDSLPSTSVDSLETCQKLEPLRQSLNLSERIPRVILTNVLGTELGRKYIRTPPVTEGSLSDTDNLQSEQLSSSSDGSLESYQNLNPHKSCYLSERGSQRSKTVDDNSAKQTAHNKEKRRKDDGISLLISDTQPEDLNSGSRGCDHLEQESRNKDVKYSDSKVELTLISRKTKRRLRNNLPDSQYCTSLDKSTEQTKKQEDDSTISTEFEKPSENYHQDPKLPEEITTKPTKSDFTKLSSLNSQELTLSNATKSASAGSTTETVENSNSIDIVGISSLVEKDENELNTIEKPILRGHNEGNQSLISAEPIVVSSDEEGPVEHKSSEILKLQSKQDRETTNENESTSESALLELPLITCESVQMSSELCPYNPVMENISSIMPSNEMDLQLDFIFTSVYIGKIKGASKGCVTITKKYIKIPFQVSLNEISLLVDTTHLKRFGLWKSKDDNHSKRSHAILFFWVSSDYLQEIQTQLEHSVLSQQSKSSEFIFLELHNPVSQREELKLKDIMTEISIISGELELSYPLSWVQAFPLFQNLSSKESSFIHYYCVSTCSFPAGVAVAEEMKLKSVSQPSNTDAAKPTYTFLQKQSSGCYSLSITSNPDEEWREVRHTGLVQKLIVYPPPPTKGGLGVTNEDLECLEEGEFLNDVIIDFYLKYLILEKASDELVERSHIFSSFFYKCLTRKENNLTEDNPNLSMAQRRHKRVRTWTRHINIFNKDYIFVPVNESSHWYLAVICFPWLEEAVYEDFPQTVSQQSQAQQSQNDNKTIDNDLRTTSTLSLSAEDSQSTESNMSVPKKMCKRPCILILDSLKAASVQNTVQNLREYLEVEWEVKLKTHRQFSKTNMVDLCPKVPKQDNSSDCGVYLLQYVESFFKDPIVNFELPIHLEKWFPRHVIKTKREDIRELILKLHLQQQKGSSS
Active and inactive are the calls of the source.
Write down the outcome that applies. Available outcomes: active, inactive

Before answering, review these 3 worked examples.
smiles_str=C(=N/Nc1cc(N2CCCCCC2)nc(N2CCCCCC2)n1)/c1ccccc1 group_label=inactive
smiles_str=CN(C)S(=O)(=O)c1ccc2nc(NC(=O)c3sc4ccccc4c3Cl)sc2c1 group_label=inactive
smiles_str=Fc1cccc(F)c1-c1nc(/C=C/c2ccccc2)no1 group_label=active

# ---- query molecule ----
Assay outcome for Cc1cc(C(=O)Nc2sc3c(c2C#N)CCC3)no1 : what was it? active

* * *

assay: Luminescence Cell-Based Dose Confirmation HTS to Identify Activators of 5'UTR Stem-Loop Driven Alpha-Synuclein mRNA Translation in H4 Neuroglioblastoma Cells. [Related pubchem assays: 1829 (Project Summary), 1814 (Primary HTS)]; format: functional
Activity calls are given as the source filed them.
Measured EC50 values are reported for all entries that follow.

A selection of reference data follows.
smiles_str=Cc1nc(NC(=O)C23CC4CC(CC(C4)C2)C3)sc1Cc1ccc2c(c1)OCO2 reported_endpoint=EC50 result="15.8 µM (active)"
smiles_str=CCN(CC)CCn1c2ccccc2c2cnc(N)c(C#N)c21 reported_endpoint=EC50 result="10.2 µM (active)"
smiles_str=CN1C(=O)S/C(=C\c2ccc(-n3cncn3)cc2)C1=O reported_endpoint=EC50 result="59.6 µM (active)"
smiles_str=Cc1ccccc1Nc1c(-c2ccc(N3CCOCC3)cc2)nc2cnccn12 reported_endpoint=EC50 result="15 µM (active)"
smiles_str=COc1ccc(C(=O)Nc2cnc3ccccn3c2=O)cc1 reported_endpoint=EC50 result="0.129 µM (active)"

Request the reported EC50 associated with COc1ccc(CC(=O)Nc2cccc(-c3nnc(-c4cccc(C)c4)o3)c2)cc1OC 15 µM (active)

* * *

target: Voltage-gated inwardly rectifying potassium channel KCNH2 (Homo sapiens, UniProt Q12809); conditions: Potency;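 further: confirmatory quantitative high-throughput screen measuring inhibition of hERG channel activity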
Sequence (Q12809 whole entry): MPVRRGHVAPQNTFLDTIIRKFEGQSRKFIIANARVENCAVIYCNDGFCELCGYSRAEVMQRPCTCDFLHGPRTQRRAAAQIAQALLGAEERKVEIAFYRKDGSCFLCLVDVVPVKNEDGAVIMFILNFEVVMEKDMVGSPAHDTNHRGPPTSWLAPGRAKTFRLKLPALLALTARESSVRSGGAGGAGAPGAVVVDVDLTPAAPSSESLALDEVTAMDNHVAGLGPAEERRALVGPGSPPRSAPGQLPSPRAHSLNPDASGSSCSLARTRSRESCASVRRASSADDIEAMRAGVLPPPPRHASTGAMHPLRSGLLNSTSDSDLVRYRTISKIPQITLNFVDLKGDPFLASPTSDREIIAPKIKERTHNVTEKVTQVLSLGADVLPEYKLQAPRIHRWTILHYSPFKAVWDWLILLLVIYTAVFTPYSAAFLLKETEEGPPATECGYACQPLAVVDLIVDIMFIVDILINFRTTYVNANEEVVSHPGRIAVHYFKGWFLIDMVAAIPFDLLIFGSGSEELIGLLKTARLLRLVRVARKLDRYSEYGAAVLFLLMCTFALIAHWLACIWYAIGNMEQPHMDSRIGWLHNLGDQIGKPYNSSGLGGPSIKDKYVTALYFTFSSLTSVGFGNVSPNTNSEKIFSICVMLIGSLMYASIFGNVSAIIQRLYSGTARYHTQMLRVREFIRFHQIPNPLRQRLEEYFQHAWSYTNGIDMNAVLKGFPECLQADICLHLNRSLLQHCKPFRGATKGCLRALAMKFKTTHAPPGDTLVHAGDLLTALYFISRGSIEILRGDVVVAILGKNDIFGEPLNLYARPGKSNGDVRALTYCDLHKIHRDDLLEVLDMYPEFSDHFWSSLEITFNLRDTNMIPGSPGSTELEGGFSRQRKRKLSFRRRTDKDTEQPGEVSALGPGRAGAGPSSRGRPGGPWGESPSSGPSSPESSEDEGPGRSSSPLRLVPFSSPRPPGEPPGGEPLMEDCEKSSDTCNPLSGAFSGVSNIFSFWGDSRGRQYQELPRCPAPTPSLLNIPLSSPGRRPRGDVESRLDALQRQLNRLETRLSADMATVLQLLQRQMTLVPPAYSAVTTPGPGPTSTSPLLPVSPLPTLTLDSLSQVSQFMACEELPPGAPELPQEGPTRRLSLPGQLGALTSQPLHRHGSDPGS
Structures can show the parent of a compound that is named as a salt.
Reported Endpoint: AC50

A selection of reference data follows.
molecule=COc1ccc(NC(=O)/C=C/c2ccc(Cl)cc2)cc1 result="25.1 µM (inconclusive)"
molecule=Cn1cnc2c(NC3CCCC3)ncnc21 result="1.41 µM (inconclusive)"
molecule=[O-]/[N+](=N/c1ccccc1)c1ccccc1 result="50.1 µM (inconclusive)"

Let us examine a further case.
Request the reported AC50 associated with CN(C)CCC(c1ccccc1)c1ccccn1 (centres undefined) [PHENIRAMINE MALEATE] 15.8 µM (inconclusive)
